# assay-system: Prostaglandin E2 receptor EP3 subtype (Homo sapiens)
# Sequence (P43115 whole entry): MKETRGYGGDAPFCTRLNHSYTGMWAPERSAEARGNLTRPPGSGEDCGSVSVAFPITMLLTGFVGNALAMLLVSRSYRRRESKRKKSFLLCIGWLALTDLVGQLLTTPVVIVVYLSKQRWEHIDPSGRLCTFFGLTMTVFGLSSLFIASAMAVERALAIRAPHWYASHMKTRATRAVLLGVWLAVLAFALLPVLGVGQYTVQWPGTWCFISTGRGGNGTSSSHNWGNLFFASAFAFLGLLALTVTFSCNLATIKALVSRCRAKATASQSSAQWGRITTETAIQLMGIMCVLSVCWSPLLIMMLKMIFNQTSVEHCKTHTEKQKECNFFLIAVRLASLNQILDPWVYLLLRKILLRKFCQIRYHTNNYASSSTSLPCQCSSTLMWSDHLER
# procedure-details: Agonist activity at human EP3 receptor
Hi! Could you tag entries with EC50 below 7 nM as rule met, and those at or above as rule not met? Much appreciated.

- smiles-structure: "CC(C)(C)CCC1([C@H](O)/C=C/[C@H]2COC(=O)N2CCSc2nc(C(=O)O)cs2)CCC1"
  qualitative-label: "rule met"
- smiles-structure: "CCCCC(C)(C)[C@H](O)/C=C/[C@H]1COC(=O)N1CCSc1nc(C(=O)O)cs1"
  qualitative-label: "rule not met"
- smiles-structure: "CCCCC1([C@H](O)/C=C/[C@H]2COC(=O)N2CCSc2nc(C(=O)O)cs2)CCC1"
  qualitative-label: "rule met"
- smiles-structure: "CC#CCC1([C@H](O)/C=C/[C@H]2COC(=O)N2CCSc2nc(C(=O)O)cs2)CCC1"
  qualitative-label: "rule not met"
- smiles-structure: "COCCCC1([C@H](O)/C=C/[C@H]2COC(=O)N2CCSc2nc(C(=O)O)cs2)CCC1"
  qualitative-label: "rule not met"
- smiles-structure: "CC(C)(CCCCF)[C@H](O)/C=C/[C@H]1COC(=O)N1CCSc1nc(C(=O)O)cs1"
  qualitative-label: "rule met"
- smiles-structure: "O=C(O)c1csc(SCCN2C(=O)OC[C@@H]2/C=C/[C@@H](O)C2(CCC3CCCCC3)CCC2)n1"
  qualitative-label: "rule not met"
- smiles-structure: "O=C(O)c1csc(SCCN2C(=O)OC[C@@H]2/C=C/[C@@H](O)C2(CCCCF)CCC2)n1"
  qualitative-label: "rule not met"
- smiles-structure: "CCCC[C@H](C)C[C@H](O)/C=C/[C@H]1CCC(=O)N1CCSc1nc(C(=O)O)cs1"
  qualitative-label: "rule not met"
- smiles-structure: "CCOCCC1([C@H](O)/C=C/[C@H]2COC(=O)N2CCSc2nc(C(=O)O)cs2)CCC1"
  qualitative-label: "rule not met"
- smiles-structure: "O=C(O)c1csc(SCCN2C(=O)OC[C@@H]2/C=C/[C@@H](O)C2(CCc3ccccc3)CCC2)n1"
  qualitative-label: "rule not met"
- smiles-structure: "CCCCC(C)(C)[C@H](O)/C=C/[C@H]1CCC(=O)N1CCSc1nc(C(=O)O)cs1"
  qualitative-label: "rule not met"

###

# procedure-details: Oral bioavailability in rat at 1 mg/kg
# Format: ADME, organism-based
# recorded-conditions: in vivo
experimental-endpoint: bioavailability

- smiles-structure: "O=C(O)c1csc(SCCN2C(=O)OC[C@@H]2/C=C/[C@@H](O)C2(CCCCF)CCC2)n1"
  experimental-endpoint: "bioavailability"
  experimental-result: "2.5%"

###

# procedure-details: Clearance in rat at 0.01 mg/kg, iv
# Assay type: ADME, organism-based
# recorded-conditions: in vivo

- smiles-structure: "O=C(O)c1csc(SCCN2C(=O)OC[C@@H]2/C=C/[C@@H](O)C2(CCCCF)CCC2)n1"
  clearance / mL/min/kg: 9.5

###

# assay-system: Prostaglandin E2 receptor EP4 subtype (Homo sapiens, UniProt P35408)
# Sequence (P35408 whole entry): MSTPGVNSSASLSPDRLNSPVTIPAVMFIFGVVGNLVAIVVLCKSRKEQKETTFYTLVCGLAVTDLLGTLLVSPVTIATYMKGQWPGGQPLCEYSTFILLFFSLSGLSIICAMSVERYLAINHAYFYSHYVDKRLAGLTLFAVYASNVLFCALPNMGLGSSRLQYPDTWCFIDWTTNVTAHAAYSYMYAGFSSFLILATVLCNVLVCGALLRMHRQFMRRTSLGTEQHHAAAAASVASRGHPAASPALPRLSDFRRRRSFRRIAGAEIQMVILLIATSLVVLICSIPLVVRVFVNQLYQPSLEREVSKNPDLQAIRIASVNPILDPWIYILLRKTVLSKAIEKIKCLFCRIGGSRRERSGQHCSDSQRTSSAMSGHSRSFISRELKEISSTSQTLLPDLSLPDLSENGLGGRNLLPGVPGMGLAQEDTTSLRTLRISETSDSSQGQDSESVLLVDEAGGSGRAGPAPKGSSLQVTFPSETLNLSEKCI
# procedure-details: Agonist activity at human EP4 receptor
pEC50: −log10 of the molar value.
# pEC50 values compiled below

- smiles-structure: "CCOCCC1([C@H](O)/C=C/[C@H]2COC(=O)N2CCSc2nc(C(=O)O)cs2)CCC1"
  pEC50: 6.13
- smiles-structure: "CC#CCC1([C@H](O)/C=C/[C@H]2COC(=O)N2CCSc2nc(C(=O)O)cs2)CCC1"
  pEC50: 6.62
- smiles-structure: "CCCC[C@H](C)C[C@H](O)/C=C/[C@H]1CCC(=O)N1CCSc1nc(C(=O)O)cs1"
  pEC50: 8.52
- smiles-structure: "O=C(O)c1csc(SCCN2C(=O)OC[C@@H]2/C=C/[C@@H](O)C2(CCC3CCCCC3)CCC2)n1"
  pEC50: 5.08
- smiles-structure: "CCCCC1([C@H](O)/C=C/[C@H]2COC(=O)N2CCSc2nc(C(=O)O)cs2)CCC1"
  pEC50: 7.14
- smiles-structure: "CCCCC(C)(C)[C@H](O)/C=C/[C@H]1CCC(=O)N1CCSc1nc(C(=O)O)cs1"
  pEC50: 8.38
- smiles-structure: "COCCCC1([C@H](O)/C=C/[C@H]2COC(=O)N2CCSc2nc(C(=O)O)cs2)CCC1"
  pEC50: 6.15
- smiles-structure: "CC(C)(C)CCC1([C@H](O)/C=C/[C@H]2COC(=O)N2CCSc2nc(C(=O)O)cs2)CCC1"
  pEC50: 5.33
- smiles-structure: "O=C(O)c1csc(SCCN2C(=O)OC[C@@H]2/C=C/[C@@H](O)C2(CCc3ccccc3)CCC2)n1"
  pEC50: 6.33
- smiles-structure: "CCCCC(C)(C)[C@H](O)/C=C/[C@H]1COC(=O)N1CCSc1nc(C(=O)O)cs1"
  pEC50: 6.49
- smiles-structure: "CC(C)(CCCCF)[C@H](O)/C=C/[C@H]1COC(=O)N1CCSc1nc(C(=O)O)cs1"
  pEC50: 5.91
- smiles-structure: "O=C(O)c1csc(SCCN2C(=O)OC[C@@H]2/C=C/[C@@H](O)C2(CCCCF)CCC2)n1"
  pEC50: 6.71

###

# assay-system: Prostaglandin E2 receptor EP2 subtype (Homo sapiens)
# Sequence (P43116 whole entry): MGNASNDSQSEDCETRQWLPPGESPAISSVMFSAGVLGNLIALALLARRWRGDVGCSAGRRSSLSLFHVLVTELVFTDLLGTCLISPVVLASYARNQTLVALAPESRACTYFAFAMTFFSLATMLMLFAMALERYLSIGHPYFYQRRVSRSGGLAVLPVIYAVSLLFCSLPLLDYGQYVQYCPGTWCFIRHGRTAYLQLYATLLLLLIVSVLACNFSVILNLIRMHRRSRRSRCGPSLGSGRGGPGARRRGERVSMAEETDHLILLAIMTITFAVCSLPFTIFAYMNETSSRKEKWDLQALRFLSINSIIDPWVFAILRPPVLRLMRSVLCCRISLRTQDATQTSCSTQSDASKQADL
# procedure-details: Agonist activity at human EP2 receptor
Classification by EC50 follows these ranges: L: < 3 nM; M: ≥ 3 nM and < 30 nM; H: ≥ 30 nM

- smiles-structure: "CCCCC(C)(C)[C@H](O)/C=C/[C@H]1CCC(=O)N1CCSc1nc(C(=O)O)cs1"
  qualitative-label: "L"
- smiles-structure: "O=C(O)c1csc(SCCN2C(=O)OC[C@@H]2/C=C/[C@@H](O)C2(CCC3CCCCC3)CCC2)n1"
  qualitative-label: "H"
- smiles-structure: "COCCCC1([C@H](O)/C=C/[C@H]2COC(=O)N2CCSc2nc(C(=O)O)cs2)CCC1"
  qualitative-label: "M"
- smiles-structure: "CCCCC(C)(C)[C@H](O)/C=C/[C@H]1COC(=O)N1CCSc1nc(C(=O)O)cs1"
  qualitative-label: "M"
- smiles-structure: "O=C(O)c1csc(SCCN2C(=O)OC[C@@H]2/C=C/[C@@H](O)C2(CCCCF)CCC2)n1"
  qualitative-label: "L"
- smiles-structure: "O=C(O)c1csc(SCCN2C(=O)OC[C@@H]2/C=C/[C@@H](O)C2(CCc3ccccc3)CCC2)n1"
  qualitative-label: "H"
- smiles-structure: "CCCC[C@H](C)C[C@H](O)/C=C/[C@H]1CCC(=O)N1CCSc1nc(C(=O)O)cs1"
  qualitative-label: "L"
- smiles-structure: "CCCCC1([C@H](O)/C=C/[C@H]2COC(=O)N2CCSc2nc(C(=O)O)cs2)CCC1"
  qualitative-label: "L"
- smiles-structure: "CC#CCC1([C@H](O)/C=C/[C@H]2COC(=O)N2CCSc2nc(C(=O)O)cs2)CCC1"
  qualitative-label: "M"
- smiles-structure: "CC(C)(C)CCC1([C@H](O)/C=C/[C@H]2COC(=O)N2CCSc2nc(C(=O)O)cs2)CCC1"
  qualitative-label: "H"
- smiles-structure: "CCOCCC1([C@H](O)/C=C/[C@H]2COC(=O)N2CCSc2nc(C(=O)O)cs2)CCC1"
  qualitative-label: "M"
- smiles-structure: "CC(C)(CCCCF)[C@H](O)/C=C/[C@H]1COC(=O)N1CCSc1nc(C(=O)O)cs1"
  qualitative-label: "M"

###

Target sequence: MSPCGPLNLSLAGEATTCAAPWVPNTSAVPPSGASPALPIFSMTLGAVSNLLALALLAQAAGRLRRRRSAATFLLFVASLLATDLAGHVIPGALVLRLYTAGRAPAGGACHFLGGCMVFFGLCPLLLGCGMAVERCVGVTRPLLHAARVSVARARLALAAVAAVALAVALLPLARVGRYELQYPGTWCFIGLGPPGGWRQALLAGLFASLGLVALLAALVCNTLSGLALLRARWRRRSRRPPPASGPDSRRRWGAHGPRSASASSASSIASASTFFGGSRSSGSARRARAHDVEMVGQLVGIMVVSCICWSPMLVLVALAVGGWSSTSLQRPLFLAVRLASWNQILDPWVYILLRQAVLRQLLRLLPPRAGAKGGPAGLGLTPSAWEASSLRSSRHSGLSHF
pKi: −log10 of the molar value.
# pKi values compiled below

- smiles-structure: "COCCCC1([C@H](O)/C=C/[C@H]2COC(=O)N2CCSc2nc(C(=O)O)cs2)CCC1"
  comparator: "<"
  pKi: 5.00
- smiles-structure: "CCCCC1([C@H](O)/C=C/[C@H]2COC(=O)N2CCSc2nc(C(=O)O)cs2)CCC1"
  comparator: "="
  pKi: 6.66
- smiles-structure: "O=C(O)c1csc(SCCN2C(=O)OC[C@@H]2/C=C/[C@@H](O)C2(CCc3ccccc3)CCC2)n1"
  comparator: "="
  pKi: 6.10
- smiles-structure: "CC#CCC1([C@H](O)/C=C/[C@H]2COC(=O)N2CCSc2nc(C(=O)O)cs2)CCC1"
  comparator: "="
  pKi: 7.05
- smiles-structure: "O=C(O)c1csc(SCCN2C(=O)OC[C@@H]2/C=C/[C@@H](O)C2(CCCCF)CCC2)n1"
  comparator: "="
  pKi: 5.97
